target: hP2X2/3H (Homo sapiens, UniProt P56373+Q9UBL9); construct: expressed in transfected cells; host or cells: e.g. HEK293 or 1321N1; test: Calcium uptake assay (P2X antagonist assay), P2X2/3 heteromer; assay type: cell-based; conditions: calcium uptake assay, hP2X2/3H; read-out: IC50 hP2X2/3H (nM), Ca Influx
Sequence (Q9UBL9 whole entry): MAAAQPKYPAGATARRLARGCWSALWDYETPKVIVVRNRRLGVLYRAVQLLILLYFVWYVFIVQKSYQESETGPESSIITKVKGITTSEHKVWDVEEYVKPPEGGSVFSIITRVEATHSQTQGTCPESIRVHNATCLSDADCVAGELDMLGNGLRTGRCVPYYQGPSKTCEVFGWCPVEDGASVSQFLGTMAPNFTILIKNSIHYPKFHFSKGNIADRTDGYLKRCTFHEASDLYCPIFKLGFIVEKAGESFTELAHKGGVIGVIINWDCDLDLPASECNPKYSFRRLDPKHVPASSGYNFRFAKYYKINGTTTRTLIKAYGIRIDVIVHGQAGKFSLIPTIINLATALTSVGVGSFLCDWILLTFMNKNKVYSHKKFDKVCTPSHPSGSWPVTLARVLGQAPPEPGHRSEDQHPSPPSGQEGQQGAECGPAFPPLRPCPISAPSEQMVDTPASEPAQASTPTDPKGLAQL
Sequence (P56373 whole entry): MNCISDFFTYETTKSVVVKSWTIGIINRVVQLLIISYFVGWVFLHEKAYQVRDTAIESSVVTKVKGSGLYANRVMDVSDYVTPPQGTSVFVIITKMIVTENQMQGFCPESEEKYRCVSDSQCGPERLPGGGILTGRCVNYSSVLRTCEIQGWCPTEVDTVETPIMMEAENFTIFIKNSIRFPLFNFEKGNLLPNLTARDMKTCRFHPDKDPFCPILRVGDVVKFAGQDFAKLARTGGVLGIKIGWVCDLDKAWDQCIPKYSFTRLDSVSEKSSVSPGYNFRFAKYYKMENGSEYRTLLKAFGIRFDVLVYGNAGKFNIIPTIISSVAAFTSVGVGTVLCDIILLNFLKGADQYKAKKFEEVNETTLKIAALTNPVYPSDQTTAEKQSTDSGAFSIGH
Reported Metric: IC50

Examples with their reported IC50 follow.
Cc1ccc(-c2cc(C(=O)N[C@@H](C)c3cnc(C)nc3)cc(C(=O)N3CCCC3)c2)cc1	501 to 1000 nM
Cc1ccc(-c2cc(C(=O)NCc3ccc(C)nc3)cc(C(=O)N3CC[C@@H](NC(=O)OC(C)(C)C)C3)c2)cc1	100 to 500 nM
Cc1ccc(-c2cc(C(=O)NCc3ccc(C)nc3)cc(C(=O)N(C)[C@@H]3CCNC3)c2)cc1	501 to 1000 nM
Cc1ccc(-c2cc(C(=O)N[C@@H](C)c3ccc(C)nc3)cc(C(=O)N3CCCC3)c2)cc1	> 1000 nM
Cc1ccc(-c2cc(C(=O)NCc3ccc(C(F)(F)F)nc3)cc(S(C)(=O)=O)c2)cc1	100 to 500 nM

Hi, could you look up IC50 for each item in my list?
1. Cc1ccc(-c2cc(C(=O)NCc3cnc(C)nc3)cc(C(=O)N3CCCC3)c2)cc1
2. Cc1ccc(-c2cc(C(=O)NCc3ccc4cccnc4c3)cc(S(C)(=O)=O)c2)cc1
3. Cc1ccc(-c2cc(C(=O)NC(C)c3ccc4c(c3)OCO4)cc(C(=O)N3CCCC3)c2)cc1 (stereo not shown)
4. Cc1ccc(-c2cc(C(=O)N[C@H](C)c3cnc(C)nc3)cc(C(=O)N3CCCC3)c2)cc1

1. < 100 nM
2. 100 to 500 nM
3. 100 to 500 nM
4. < 100 nM

* * *

For each of the compounds below, state its IC50.
molecular target: hP2X3 (Homo sapiens); construct: expressed in transfected cells; host or cells: e.g. HEK293 or 1321N1; test: Calcium uptake assay (P2X antagonist assay), P2X3 homomer; format: cell-based; settings: calcium uptake assay, hP2X3; read-out: IC50 hP2X3 (nM), Ca Influx

Answered cases to consult:
Cc1ccc(-c2cc(C(=O)NCc3ncc(C(F)(F)F)cc3Cl)cc(C(=O)N3CCCC3)c2)cc1 [Compound 74]	< 100 nM
Cc1ccc(-c2cc(C(=O)N[C@H](C)c3cnn(C)c3C(F)(F)F)cc(C(=O)N3CCCC3)c2)cc1 [Compound 107]	100 to 500 nM
Cc1ccc(-c2cc(C(=O)NCc3ccc(C)nc3)cc(S(C)(=O)=O)c2)nc1 [Compound 113]	< 100 nM
Cc1ccc(-c2cc(C(=O)NCc3ccc(C)nc3)cc(C(=O)N3CC[C@H](O)C3)c2)cc1 [Compound 95]	< 100 nM

Parameters: items (list). Returns: IC50 for each item.
1. Cc1ccc(-c2cc(C(=O)NCc3ccc(C)nc3)cc(C(=O)N3CC4CN(C)CC4C3)c2)cc1 (stereo not shown) [Compound 141]
2. COc1ncc(CNC(=O)c2cc(-c3ccc(C)cc3)cc(S(C)(=O)=O)c2)cn1 [Compound 115]
3. Cc1ccc(CNC(=O)c2cc(-c3ccc(C)c(Cl)c3)cc(S(C)(=O)=O)c2)cn1 [Compound 120]
4. Cc1ccc(-c2cc(C(=O)NCc3ccc(C)c(S(C)(=O)=O)c3)cc(S(C)(=O)=O)c2)cc1 [Compound 36]
5. Cc1ccc(-c2cc(C(=O)NCc3ccc(C)nc3)cc(S(=O)(=O)N3CCCC3)c2)cc1 [Compound 105]

1. < 100 nM
2. < 100 nM
3. > 1000 nM
4. < 100 nM
5. < 100 nM

* * *

biological target: hP2X2/3H (Homo sapiens, UniProt P56373+Q9UBL9); construct: expressed in transfected cells; host or cells: e.g. HEK293 or 1321N1; test: Calcium uptake assay (P2X antagonist assay), P2X2/3 heteromer; format: cell-based; conditions: calcium uptake assay, hP2X2/3H; read-out: IC50 hP2X2/3H (nM), Ca Influx
Reported Metric: IC50

Known results for compounds:
Cc1ccc(-c2cc(C(=O)N[C@H](C)c3ccc(C)nc3)cc(C(=O)N3CCCC3)c2)nc1 [Compound 173]	< 100 nM
Cc1ccc(-c2cc(C(=O)NCc3ccc(C(F)(F)F)nc3)cc(C(=O)N3CCCC3)c2)cc1 [Compound 47]	100 to 500 nM
Cc1ccc(-c2cc(C#N)cc(C(=O)NCc3ccc(C)nc3)c2)nc1 [Compound 160]	501 to 1000 nM
CCCS(=O)(=O)c1cc(C(=O)NCc2ccc(C)c(S(C)(=O)=O)c2)cc(-c2ccc(C)cc2)c1 [Compound 41]	< 100 nM
Cc1ccc(-c2cc(C(=O)NCc3ccc(C)nc3)cc(C(=O)N3CCOc4ccccc43)c2)cc1 [Compound 190]	< 100 nM
Cc1ccc(-c2cc(C(=O)NCc3cnc(C)nc3)cc(C(=O)N3CCC3)c2)cc1 [Compound 30]	< 100 nM
Cc1ccc(-c2cc(C(=O)NCc3ccc(C)nc3)cc(C(=O)N3CCN(c4nccs4)CC3)c2)cc1 [Compound 127]	100 to 500 nM
Cc1ccc(-c2cc(C(=O)NCc3cnc(C)nc3)cc(S(C)(=O)=O)c2)cc1 [Compound 22]	100 to 500 nM

Now take the following compound into account.
Write down the reported IC50 (system: hP2X2/3H (Homo sapiens, UniProt P56373+Q9UBL9)) of Cc1ccc(-c2cc(C(=O)N[C@H](C)c3cnn(C)c3Cl)cc(C(=O)N3CCCC3)c2)cc1 [Compound 108]
< 100 nM

* * *

Provide the recorded IC50 for the entries that follow.
Biological target: hP2X3 (Homo sapiens, UniProt P56373)
Construct: expressed in transfected cells; host or cells: e.g. HEK293 or 1321N1
Sequence (P56373 whole entry): as above
Assay: Calcium uptake assay (P2X antagonist assay), P2X3 homomer
Format: cell-based
Conditions: calcium uptake assay, hP2X3; read-out: IC50 hP2X3 (nM), Ca Influx
Method: The human P2X2/3 chimera clone is created as described by Neelands et al, and then cloned into an expression vector as above. […] Functional activity of compounds at the P2X receptor is determined by measuring their ability to inhibit agonist-induced calcium influx. […] At the start of each screening day, the agonist EC50 is determined. Compound % inhibition or IC50s are subsequently determined using a predetermined agonist concentration (EC50-90 depending on cell line) as a stimulus. […]

Below, 3 compounds whose answers are already recorded.
Cc1ccc(-c2cc(C#N)cc(C(=O)NCc3ccc(C)nc3)c2)cc1	100 to 500 nM
CCN(CC)C(=O)c1cc(C(=O)NCc2cnc(C)nc2)cc(-c2ccc(C)cc2)c1	< 100 nM
Cc1ccc(-c2cc(C(=O)N[C@H](C)c3cnc(C)nc3)cc(S(C)(=O)=O)c2)cc1	< 100 nM

Consider now this further compound.
Look up and report measured IC50 (hP2X3 (Homo sapiens, UniProt P56373)) for the following compound: Cc1ccc(-c2cc(C(=O)NCc3ccc(C)nc3)cc(C(=O)N(C)Cc3ccncc3)c2)cc1
< 100 nM

* * *

target: hP2X2/3H (Homo sapiens, UniProt P56373+Q9UBL9); construct: expressed in transfected cells; host or cells: e.g. HEK293 or 1321N1; assay: Calcium uptake assay (P2X antagonist assay), P2X2/3 heteromer; type: cell-based; conditions: Ca influx (calcium uptake assay), hP2X2/3H; read-out: IC50 hP2X2/3H
Reported Metric: IC50

Worked set:
Cc1ccc(-c2cc(C(=O)NCc3cnc(C)nc3)cc(C(O)c3ccccn3)c2)cc1 (stereo not drawn) [Compound 267]	< 100 nM
Cc1ccc(-c2cc(C(=O)N[C@@H](C)CO)cc(S(=O)(=O)CC(C)C)c2)cc1 [Compound 281]	> 1000 nM
COCC(C)Oc1cc(C(=O)N[C@H](C)c2ccc(C)nc2)cc(-c2ccc(C)cn2)c1 (stereo partly drawn) [Compound 328]	< 100 nM

For each of the molecules below, state IC50.
1. Cc1ccc(-c2cc(C(=O)NCc3ccc(C)nc3)cc(C(O)CN3CCCC3)c2)cc1 (stereo not drawn) [Compound 230]
2. Cc1ccc(-c2cc(C(=O)NCc3ccc(C)nc3)cc(C(O)CN3CC(C)OC(C)C3)c2)cc1 (stereo not drawn) [Compound 391]
3. Cc1ccc(-c2cc(C(=O)N[C@H](C)c3cnc(C)nc3)cc(C(O)c3nccs3)c2)nc1 (stereo partly drawn) [Compound 292]

100 to 500 nM
< 100 nM
< 100 nM

* * *

Provide the recorded IC50 for the entries that follow.
Molecular target: hP2X2/3H (Homo sapiens, UniProt P56373+Q9UBL9)
Construct: expressed in transfected cells; host or cells: e.g. HEK293 or 1321N1
Assay: Calcium uptake assay (P2X antagonist assay), P2X2/3 heteromer
Format: cell-based
Settings: calcium uptake assay, hP2X2/3H; read-out: IC50 hP2X2/3H (nM), Ca Influx
Protocol: The human P2X2/3 chimera clone is created as described by Neelands et al, and then cloned into an expression vector as above. […] Functional activity of compounds at the P2X receptor is determined by measuring their ability to inhibit agonist-induced calcium influx. […] At the start of each screening day, the agonist EC50 is determined. Compound % inhibition or IC50s are subsequently determined using a predetermined agonist concentration (EC50-90 depending on cell line) as a stimulus. […]

Look over these answered cases.
Cc1ccc(-c2cc(C(=O)NCc3ccc(C)nc3)cc(S(=O)(=O)N3CCCC3)c2)nc1	< 100 nM
Cc1ccc(-c2cc(C(=O)NCc3ccc(C)nc3)cc(C(=O)N3CCc4ccccc4C3)c2)cc1	100 to 500 nM
Cc1ccc(-c2cc(C(=O)NCc3ccc(C)nc3)cc(C(=O)N3CCN(C(C)C)CC3)c2)cc1	100 to 500 nM
Cc1ccc(-c2cc(C#N)cc(C(=O)NCc3ccc(C)nc3)c2)cc1	100 to 500 nM
Cc1ccc(-c2cc(C(=O)NCc3ccc(Cl)c(-n4cnnc4)c3)cc(C(=O)N3CCCC3)c2)cc1	< 100 nM
Cc1ccc(-c2cc(C(=O)NCc3ccc(C)nc3)cc(C(=O)N3Cc4ccccc4C3)c2)cc1	100 to 500 nM

Lab note: each compound below needs its IC50 filled in.
1. Cc1ccc(-c2cc(C(=O)NCc3ccc(C(F)(F)F)c(F)c3)cc(C(=O)N3CCCC3)c2)nc1
2. COc1ccc(CNC(=O)c2cc(-c3ccc(C)cc3)cc(S(C)(=O)=O)c2)cn1

1. 100 to 500 nM
2. < 100 nM
